System: K4 kissing-loop RNA reporter;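 note: bound reporter read as fluorescence of individual clusters on recovered sequencing chips by microscopy, with normalized cluster intensities fitted with a binding model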
Test: apparent KD of K4 kissing-loop reporter; higher = weaker reporter binding
Settings: Eterna round: R107; input ligand: tryptophan 2.4 mM
recorded metric: apparent KD of K4 kissing-loop reporter
Show the value, then the unit it is measured in.

Consider the following illustrative entries.
AGAUUCGACACGGCCGCCACUUGUGGUGGAUUAUCCUAUGUAAGACAUGAGUGAUGUUCAUGUACAAGGACCGGGUGUUGAGUCU [KL-XTryp-B4 #analogue]; 425 nM
GUUAUGGACCUGGAUACCAGCUGGUACAAGGUCGGUCUACAUGAGUGAUGUUCAUGUGUCAGCCCUUGGCAGCCAGCAACCGGCA [KL-XTheo-B10]; 86.2 nM
AAACGUUGGUGCGAUACCAGCUGAUCGGAAACGAUCUUGCUGGAGUGAUGUUCCAAGUAAAGCCCUUGGCAGCGCACCGACGAAA [MAT - Same State Theophlline B - Mod of Eli - D22]; 69.3 nM
UAUAUAGUGACGGCCGCCACUAUAUUAAUGUUUUUGUUAGAGUGAUGUUUUGUUUAAUAUUUUUAUAGGACCGGGUUAUAUGUUA [zsqqxmullin]; 580 nM
AGAGUGAUGUUUUUUUGAAGUGAGUAAAGUCGAGGACCGGUACGGCCGCCACUCGAGUGAUGUUAGUGAUGUUGAUGUAGUGAUG [xxzmullin]; 75.4 nM
UUUGGUUUCUCGGCCGCCACUCGUGGGAAAUGGGCCUCAGGGAUAUAGUGAUGUUAUGUAAAGAAGAGGACCGGGAGAAGGAAGG [ExTryptoB.Dl]; 233 nM
GCGUAGAUUAGCAGUGAUGUUGCUACGGAAGGAGCGCGUGAAAACGCAGGUAGGUCGCCGACAAAAUUAAUUUUAAUGUCUGCGC [KL-SSArg-A6]; 365 nM
GGUAGCAUGAUGGAUACCAGUCCAAAUGGAGUGAUGUUCCAACAACAGGUUAGGCUGCUGGACCCUUGGCAGCCGUCAUGCUACC; 133 nM

The sequence listed as UCUGGAGCAUAUGAUACCAGCAGUGAGAGACAGGAAGUAUAGUGAUGUUAUAUGAGAGAAUGCCCUUGGCAGCGUGUGCAGUGGG [SSTheophylB.O] has a reported apparent KD of K4 kissing-loop reporter of 75.2 nM

The sequence listed as UCGGCGUACGGGCGGGUAGUGAUGUUGCUCCGAGGACCGGUACGGCCGCCACUCGAGGUACCAGUUCAUAGAACCUGGCACAUCA [theeternabot_exclusion_KL_Trp_A_23] has a reported apparent KD of K4 kissing-loop reporter of 266 nM

The sequence listed as CCGCUACCCUCAGGAUAUUAAAUAUUAGUGAUGUUAAUAAACCGAUGGCGAAAGCCAUCGGUAUGUUGAGAAGGGAGGGUAGCGG [whbob_SS_FMNB__2th196] has a reported apparent KD of K4 kissing-loop reporter of 635 nM

The sequence listed as AAACCCAGUGAUGUUGGGAAUCAGUUGAGGGAGGAUAUUGGUAAUACAAGAAGGCCCGGCUGCGGGUGAUGUUCGCAUUAGGGCC [Exclusion FMN A GF17] has a reported apparent KD of K4 kissing-loop reporter of 140 nM
